Entries and their OD ratio 19-24/BSA
molecular target: T1, BSA-conjugated Aβ heptapeptide FFAEDVC (C-terminal Cys coupled to NSMP-activated BSA); assay: ELISA;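 also: ELISA binding of human antibody (10 or 2 µg/ml) to plate-coated BSA–peptide conjugates, detected with HRP anti-human Ig and TMB colour, mock-treated BSA as negative control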
T1 construct: also called Peptide 19-24
T1 peptide: FFAEDVC

binder	measured metric	data value
MS-R IgG 8.2.H2 × 8.2.L1 (antibody, V domains shown, full-length human IgG) VH: QVELVESGGGLVQPGGSLRLSCAASGFTFSSYAMSWVRQAPGKGLEWVSAISRTGSKTYYADSVKGRFTISRDNSKNTLYLQMNSLRAEDTAVYYCARLLSRGYNGYYHKFDVWGQGTLVTVSS VL: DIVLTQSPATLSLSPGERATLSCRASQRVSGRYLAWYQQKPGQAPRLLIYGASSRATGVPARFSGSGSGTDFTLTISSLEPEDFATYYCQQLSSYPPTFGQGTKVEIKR	OD ratio 19-24/BSA	25

Value of OD ratio 19-24/BSA reported for the binder MSR 7.9.H2 IgG1 (antibody, V domains shown, full-length human IgG1) VH: QVELVESGGGLVQPGGSLRLSCAASGFTFSSYAMSWVRQAPGKGLEWVSAINADGNRKYYADSVKGRFTISRDNSKNTLYLQMNSLRAEDTAVYYCARGKGNTHKPYGYVRYFDVWGQGTLVTVSS VL: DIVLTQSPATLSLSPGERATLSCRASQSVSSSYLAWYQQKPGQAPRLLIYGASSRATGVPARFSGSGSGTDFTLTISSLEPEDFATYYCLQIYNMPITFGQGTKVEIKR is 6
